- TEST TARGET: human renin (Homo sapiens, UniProt P00797)
- Construct: A human plasma pool is used as the source of both the substrate (angiotensinogen) and the enzyme (renin)
- Sequence (P00797 67-406): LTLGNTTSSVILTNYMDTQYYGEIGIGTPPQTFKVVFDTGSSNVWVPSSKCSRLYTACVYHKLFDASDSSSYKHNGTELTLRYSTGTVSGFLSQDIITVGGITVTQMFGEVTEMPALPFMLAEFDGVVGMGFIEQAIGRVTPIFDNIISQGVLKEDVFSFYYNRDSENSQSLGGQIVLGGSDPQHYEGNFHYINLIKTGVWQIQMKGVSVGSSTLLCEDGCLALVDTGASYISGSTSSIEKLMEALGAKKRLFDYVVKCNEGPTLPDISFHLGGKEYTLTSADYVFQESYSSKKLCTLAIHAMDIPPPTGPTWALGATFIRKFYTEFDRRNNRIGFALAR
- TEST PROTOCOL: Plasma renin assay (inhibition of human renin, angiotensin I by RIA)
- APPLIED CONDITIONS: human plasma pool, pH 6.0, 2 h incubation at 37°
pIC50: −log10 of the molar value.
QUANTITY: pIC50

CC(C)C[C@H](O)[C@H](O)[C@H](CC1CCCCC1)NC(=O)[C@@H](CC(=O)N(CC(=O)N(C)CCc1ccccn1)CC1CCCCC1)CC1CC1 :: 7.92
CCC(CC)CN(CC(=O)N(C)CCc1ccccn1)C(=O)C[C@@H](Cc1csc(N)n1)C(=O)N[C@@H](CC1CCCCC1)[C@@H](O)[C@@H](O)CC(C)C :: 8.52

(P) CC(C)C[C@H](O)[C@H](O)[C@H](CC1CCCCC1)NC(=O)[C@@H](CC(=O)N(CC(=O)N(C)C)CC1CC2CCC1C2)Cc1cscn1 (mixture of isomers)
(Q) COc1ccc(CN(CC(=O)N(C)C)C(=O)C[C@@H](CC2CC2)C(=O)N[C@@H](CC2CCCCC2)[C@@H](O)[C@@H](O)CC(C)C)cc1
(R) CCC[C@H](CC(=O)N(CC(=O)N(C)C)[C@@H](C)c1ccccc1)C(=O)N[C@@H](CC1CCCCC1)[C@@H](O)[C@@H](O)CC(C)C
Task: Sequence the entries by pIC50, beginning with the highest number. To answer, write out the labels according to the requested order.
Output: P, R, Q
(P: 8.70, R: 7.47, Q: 6.36)
